- Test system: DeltatarO mutant
- protocol-text: S. aureus survival, RN4220 and DeltatarO strains – OD600, teichoic acid synthesis inhibitors, primary screen (AID 463173)
- condition-description: S. aureus RN4220 wild type/DeltatarO growth, OD600, 18 h, screened at 18.75 µg/mL (by protocol)
Out of some 52,000 compounds screened, about 4,300 (8.3%) were called active. Rule as the data show it: active = survival mostly below about 52% (no sharp cut-off); inactive = mostly above about 56%. The sample holds actives, similar compounds and a random draw of the others, so the mix is not that of the screen.
Outcome codes: Y for active, N for inactive

[[record]]
compound = "COc1cc(NC(=O)CC(C)S(=O)(=O)c2ccc3c(c2)CCN3C(C)=O)cc(OC)c1OC (stereo not given)"
target_system = "DeltatarO mutant"
answer_label = "N"

[[record]]
compound = "CC(=O)N1CCc2cc(S(=O)(=O)C(C)CC(=O)Nc3ccc(Br)c(C)c3)ccc21 (stereo not given)"
target_system = "DeltatarO mutant"
answer_label = "Y"

[[record]]
compound = "COc1ccc(-c2noc(-c3ccc(N4CCOCC4)c([N+](=O)[O-])c3)n2)cc1"
target_system = "DeltatarO mutant"
answer_label = "N"

[[record]]
compound = "COc1ccc(-c2noc(-c3ccc(N4CCN(c5ccc(OC)cc5)CC4)c([N+](=O)[O-])c3)n2)cc1"
target_system = "DeltatarO mutant"
answer_label = "N"

[[record]]
compound = "COc1ccc(-c2noc(-c3ccc(N4CCCCC4)c([N+](=O)[O-])c3)n2)cc1"
target_system = "DeltatarO mutant"
answer_label = "Y"


----------
- Tested on: DeltatarO mutant
- protocol-text: S. aureus survival, RN4220 and DeltatarO strains – OD600, teichoic acid synthesis inhibitors, primary screen (AID 463173)
- condition-description: S. aureus RN4220 wild type/DeltatarO growth, OD600, 18 h, stronger effect = lower value, screened at 18.75 µg/mL (by protocol)
Among all 52,000 compounds or so, about 4,300 (8.3%) were called active. This excerpt belongs to a sample that is enriched for actives.
Criterion: survival strictly under 80%. Met: yes. Not met: no.

[[record]]
chem_smiles = "CC(=O)c1ccc(NC(=O)Cn2ncc3c(C)n(Cc4ccc(F)cc4)c(C)c3c2=O)cc1"
answer_label = "yes"

[[record]]
chem_smiles = "Cc1c2cnn(CC(=O)NCc3ccc(Cl)cc3)c(=O)c2c(C)n1Cc1ccc(F)cc1"
answer_label = "yes"

[[record]]
chem_smiles = "CC1CCN(S(=O)(=O)c2ccc3c(c2)N(CC(=O)NCCc2ccc(Cl)cc2)C(=O)CO3)CC1"
answer_label = "no"

[[record]]
chem_smiles = "Cc1ccc(C)c(NC(=O)Cn2ncc3c(C)n(Cc4ccc(F)cc4)c(C)c3c2=O)c1"
answer_label = "yes"

[[record]]
chem_smiles = "COCCc1nn2c(=O)cc(COC(=O)c3ccco3)nc2s1"
answer_label = "no"

[[record]]
chem_smiles = "CC1=C(C(=O)NCc2ccccc2Cl)C2(CCCCCC2)OC1=O"
answer_label = "yes"


----------
- Tested on: DeltatarO mutant
- protocol-text: S. aureus survival, RN4220 and DeltatarO strains – OD600, teichoic acid synthesis inhibitors, primary screen (AID 463173)
- condition-description: S. aureus RN4220 wild type/DeltatarO growth, OD600, 18 h, stronger effect = lower value, screened at 18.75 µg/mL (by protocol)
Hit rate of the full screen: of about 52,000 compounds, about 4,300 (8.3%) were called active. This excerpt belongs to a sample that is enriched for actives.
Form field: survival (one value per entry).
experimental-endpoint: survival

[[record]]
compound = "C=CCn1c(SCC(=O)c2cccs2)nc2sc(C)cc2c1=O"
experimental_endpoint = "survival"
result = "93% (inactive)"

[[record]]
compound = "CC1CCN(C(=O)c2cc3c(=O)n(C)c4ccccc4c3s2)CC1"
experimental_endpoint = "survival"
result = "88% (inactive)"

[[record]]
compound = "Cc1ccc2nc(Cl)c3cc(C(=O)NC4CCCCC4)sc3c2c1"
experimental_endpoint = "survival"
result = "52% (inactive)"

[[record]]
compound = "CCOC(=O)C1CCCN(C(=O)c2ccc(-n3ccc4ccccc43)s2)C1 (stereo unspecified)"
experimental_endpoint = "survival"
result = "-1% (active)"

[[record]]
compound = "CCN(CC)S(=O)(=O)c1ccc2oc(C(=O)Nc3ccc(Br)cc3F)c(C)c2c1"
experimental_endpoint = "survival"
result = "69% (inactive)"

[[record]]
compound = "CCC(C)NC(=O)C1CCN(C(=O)c2ccc(-n3ccc4ccccc43)s2)CC1 (stereo unspecified)"
experimental_endpoint = "survival"
result = "81% (inactive)"


----------
- Test system: DeltatarO mutant
- protocol-text: S. aureus survival, RN4220 and DeltatarO strains – OD600, teichoic acid synthesis inhibitors, primary screen (AID 463173)
- condition-description: S. aureus RN4220 wild type/DeltatarO growth, OD600, 18 h, stronger effect = lower value, screened at 18.75 µg/mL (by protocol)
About 4,300 (8.3%) of roughly 52,000 compounds were called active. This excerpt belongs to a sample that is enriched for actives.
experimental-endpoint: survival (%)

[[record]]
chem_smiles = "CCOC(=O)N1CCN(Cc2nc3cc(NC(=O)CC)ccc3n2C(C)C)CC1"
quantitative_result = 100

[[record]]
chem_smiles = "CCN(CC)S(=O)(=O)c1ccc2c(c1)c(=O)c(C(=O)NCc1ccccc1Cl)cn2C"
quantitative_result = 61

[[record]]
chem_smiles = "O=C(CCS(=O)(=O)c1cccc2nonc12)Nc1ccc(F)cc1F"
quantitative_result = 124

[[record]]
chem_smiles = "CC(C)=CC(=O)Nc1nnc(Cc2ccccc2)s1"
quantitative_result = 55

[[record]]
chem_smiles = "Cn1cc(C(=O)N2CCN(c3cccc(Cl)c3)CC2)c(=O)c2cc(S(=O)(=O)N3CCCC3)ccc21"
quantitative_result = 128


----------
- Test system: DeltatarO mutant
- protocol-text: S. aureus survival, RN4220 and DeltatarO strains – OD600, teichoic acid synthesis inhibitors, primary screen (AID 463173)
- condition-description: S. aureus RN4220 wild type/DeltatarO growth, OD600, 18 h, screened at 18.75 µg/mL (by protocol)
Screen size: about 52,000 compounds; about 4,300 (8.3%) were called active. Cut-off read from the data, not from the text of the source: active = survival mostly below about 52% (no sharp cut-off); inactive = mostly above about 56%. Shown is part of a subset that was picked to be rich in actives.
Labels: active, inactive

[[record]]
molecule = "COc1ccc(NC(=O)Cn2c(=O)oc3cc(S(=O)(=O)NC4CCCC4)ccc32)cc1OC"
answer_label = "inactive"

[[record]]
molecule = "c1ccc(C2SCCN2c2ccccc2)cc1 (stereo unspecified)"
answer_label = "inactive"

[[record]]
molecule = "CCCSc1nnc2[nH]c(=O)cc(C)n12"
answer_label = "inactive"

[[record]]
molecule = "COc1ccc(C(=O)n2nc(N)c3cc4ccc(C)cc4nc32)cc1OC"
answer_label = "inactive"

[[record]]
molecule = "CCOC(=O)C(CC)Sc1nnc2[nH]c(=O)cc(C)n12 (stereo unspecified)"
answer_label = "active"

[[record]]
molecule = "Cc1ccc(CNC(=O)c2ccc3c(c2)c(C)c(C)n3Cc2ccc(Cl)cc2)o1"
answer_label = "inactive"


----------
- Test system: DeltatarO mutant
- protocol-text: S. aureus survival, RN4220 and DeltatarO strains – OD600, teichoic acid synthesis inhibitors, primary screen (AID 463173)
- condition-description: S. aureus RN4220 wild type/DeltatarO growth, OD600, 18 h, stronger effect = lower value, screened at 18.75 µg/mL (by protocol)
Hit rate of the full screen: of about 52,000 compounds, about 4,300 (8.3%) were called active. The sample holds actives, similar compounds and a random draw of the others, so the mix is not that of the screen.
Parameter survival: see the listing below.
experimental-endpoint: survival (%)

[[record]]
molecule = "COc1cc(NC(=O)c2cc3c(s2)-c2ccccc2OC3)cc(OC)c1OC"
quantitative_result = 55

[[record]]
molecule = "Cc1ccc(CCNC(=O)c2cc3c(s2)-c2ccccc2OC3)cc1"
quantitative_result = 82

[[record]]
molecule = "CCN(CC)CCOC(=O)c1ccc(NC(=O)c2cc3c(s2)-c2ccccc2OC3)cc1"
quantitative_result = -7

[[record]]
molecule = "CCOc1ccc(NC(=O)c2cc3c(s2)-c2ccccc2OC3)cc1"
quantitative_result = 95

[[record]]
molecule = "CC(NC1CCCC1)c1ccccc1 (stereo unspecified)"
quantitative_result = 84

[[record]]
molecule = "Cc1ccc(C)c(N(C)C(=O)c2cc3c(s2)-c2ccccc2OC3)c1"
quantitative_result = -3

[[record]]
molecule = "COc1ccc(N(C)C(=O)c2cc3c(s2)-c2ccccc2OC3)cc1"
quantitative_result = -2

[[record]]
molecule = "COc1ccc(N2CCN(C(=O)c3cc4c(s3)-c3ccccc3OC4)CC2)cc1"
quantitative_result = 114

[[record]]
molecule = "Nc1nnc(CCc2ccccc2)s1"
quantitative_result = 80

[[record]]
molecule = "COc1cccc(N2CCN(C(=O)c3cc4c(s3)-c3ccccc3OC4)CC2)c1"
quantitative_result = 98

[[record]]
molecule = "COc1cccc(CNC(=O)c2cc3c(s2)-c2c(C)cccc2OC3)c1"
quantitative_result = 68

